- Test system: Pasteurella multocida
- assay-summary: minimum inhibitory concentration (MIC)
- condition-context: isolate (source animal id): 258
# Lookup of reported minimum inhibitory concentration keyed by entry

[
  {
    "compound": "CNC(C)C1CCC(N)C(OC2C(N)CC(N)C(OC3OCC(C)(O)C(NC)C3O)C2O)O1 (stereo not drawn)",
    "minimum inhibitory concentration": "4 µg/mL"
  },
  {
    "compound": "COc1cc(NS(=O)(=O)c2ccc(N)cc2)nc(OC)n1",
    "minimum inhibitory concentration": "> 256 µg/mL"
  },
  {
    "compound": "CC[C@H]1OC(=O)C[C@@H](O)[C@H](C)[C@@H](O[C@@H]2O[C@H](C)[C@@H](O[C@H]3C[C@@](C)(O)[C@@H](O)[C@H](C)O3)[C@H](N(C)C)[C@H]2O)[C@@H](CC=O)C[C@@H](C)C(=O)/C=C/C(C)=C/[C@@H]1CO[C@@H]1O[C@H](C)[C@@H](O)[C@@H](OC)[C@H]1OC",
    "minimum inhibitory concentration": "32 µg/mL"
  }
]
